All figures here come from patent US11512053B2.

So I've got a bunch of compounds here, and I need their pIC50 values.
Biological target: full-length human PRMT6 (Flag- and His-tagged) (Homo sapiens, UniProt Q96LA8)
Sequence (Q96LA8 with tags, fused parts or gaps): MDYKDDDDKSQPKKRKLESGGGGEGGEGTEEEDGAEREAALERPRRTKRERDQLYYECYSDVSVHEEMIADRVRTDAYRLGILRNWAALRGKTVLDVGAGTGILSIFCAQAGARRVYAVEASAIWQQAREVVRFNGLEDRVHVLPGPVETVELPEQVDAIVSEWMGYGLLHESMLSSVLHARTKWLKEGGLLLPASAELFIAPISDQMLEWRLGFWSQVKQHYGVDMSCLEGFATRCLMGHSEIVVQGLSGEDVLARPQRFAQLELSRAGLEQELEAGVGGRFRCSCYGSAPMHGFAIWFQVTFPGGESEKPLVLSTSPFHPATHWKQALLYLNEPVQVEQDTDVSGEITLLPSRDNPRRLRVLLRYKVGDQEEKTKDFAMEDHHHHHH
Experiment: PRMT6 Biochemical Assay (3H-SAM Flashplate, peptide substrate)
Settings: read-out: Biochemical IC50 PRMT6
pIC50: −log10 of the molar value. Where a name gives a salt, the structure may show the parent alone.

| COMPOUND | pIC50 |
| --- | --- |
| CNCCN(C)Cc1c[nH]nc1[C@H]1CC[C@H](O)C2(CCCCC2)C1 (racemic) [Compound 184] | 6.00 to 7.00 |

Would you mind giving pIC50 for every compound in the list below?
1. CNCCN(C)Cc1c[nH]nc1[C@H]1CC[C@]2(CCN(Cc3ccc(F)cc3)C2=O)CC1 [Compound 123]
2. CNCCN(C)Cc1c[nH]nc1[C@H]1CC[C@@H](O)C2(CCCCC2)C1 (single isomer, unassigned) [Compound 183]

1: > 7.00; 2: > 7.00

Here are 2 compounds. What values of pIC50 were reported for them?
1. CNCCN(C)Cc1c[nH]nc1[C@H]1CC[C@@]2(CCC(C)(C)O2)CC1 [Compound 260]
2. CNCCN(C)Cc1c[nH]nc1C1CC(C)OC(C)C1 (stereo not drawn) [Compound 179]

["> 7.00", "> 7.00"]

For each of the compounds below, note its pIC50.
1. CNCCN(C)Cc1c[nH]nc1[C@H]1CC[C@@H](N(CCOC)C(=O)CCC(C)C)CC1 [Compound 261]
2. CNCCN(C)Cc1c[nH]nc1[C@H]1CC[C@@H](O)CC1 [Compound 217, trifluoroacetate]
3. CCOCC1CC(c2n[nH]cc2CN(C)CCNC)CC(COCC)C1(C)C (stereo not drawn) [Compound 87]
4. CNCCN(C)Cc1c[nH]nc1[C@H]1CC[C@H](N(CCOc2ccccc2)C(=O)CCOC)CC1 [Compound 219]

1: > 7.00; 2: > 7.00; 3: 5.00 to 5.52; 4: > 7.00

Field: pIC50. Fill in for each record below.
1. CNCCN(C)Cc1c[nH]nc1[C@H]1CC[C@@H](N(CCCOC)C(=O)CC(C)C)CC1 [Compound 242]
2. CNCCN(C)Cc1c[nH]nc1C1CCC2(CCCC2)CC1 [Compound 48]
3. CNCCN(C)Cc1c[nH]nc1[C@H]1CC[C@H](N(CCCOC)C(=O)CCC(C)C)CC1 [Compound 243]
4. CNCCN(C)Cc1c[nH]nc1C1CCC2(CCCCC2)CC1 [Compound 46]

> 7.00
> 7.00
> 7.00
> 7.00

// each listed compound needs a value for pIC50
1. CCC(=O)N(CCOc1ccccc1)[C@H]1CC[C@@H](c2n[nH]cc2CN(C)CCNC)CC1 [Compound 220]
2. CNCCN(C)Cc1c[nH]nc1[C@@H]1CCC(C)(C)[C@@H](C(=O)NCCOC)C1 [Compound 269]
3. CNCCN(C)Cc1c[nH]nc1C1CCC(CCOC)CC1 (stereo not drawn) [Compound 55]
4. CCOC[C@H]1CC(c2n[nH]cc2CN(C)CCNC)C[C@H](COCC)C1 (stereo partly drawn) [Compound 188]
5. CNCCN(C)Cc1c[nH]nc1[C@H]1CC[C@H](N(CCCOC)C(=O)CC(C)C)CC1 [Compound 241]
6. CNCCN(C)Cc1c[nH]nc1[C@H]1CC[C@H](N(CC(C)C)C(=O)CCCOC)CC1 [Compound 248]
7. CNCCN(C)Cc1c[nH]nc1[C@H]1CC[C@@H](N(CCOc2ccccc2)C(=O)CC(C)C)CC1 [Compound 222]
8. CNCCN(C)Cc1c[nH]nc1C1CCC(CC(C)C)CC1 (stereo not drawn) [Compound 169]

> 7.00
6.00 to 7.00
> 7.00
5.52 to 6.00
> 7.00
> 7.00
> 7.00
> 7.00

Could I get pIC50 for every one of these entries?
1. CNCCN(C)Cc1c[nH]nc1[C@H]1CC[C@@H](C(=O)NCCC(C)C)CC1 [Compound 204]
2. CNCCN(C)Cc1c[nH]nc1C1CCC2(CC1)CC(=O)N(C)C2 (stereo not drawn) [Compound 157]

1: > 7.00; 2: > 7.00

Lab note: each compound below needs its pIC50 filled in.
1. CNCCN(C)Cc1c[nH]nc1[C@H]1CC[C@@H](C(=O)N(C)CCOc2ccccc2)CC1 [Compound 259]
2. CNCCN(C)Cc1c[nH]nc1C1CCC2(CC1)OCCCO2 [Compound 160]
3. CNCCN(C)Cc1c[nH]nc1[C@H]1CC[C@@H](N(CCCOC)C(=O)CCOc2ccccc2)CC1 [Compound 246]
4. CNCCN(C)Cc1c[nH]nc1C1CCC(C)(C)[C@@H](C(=O)NCCC(C)C)C1 (stereo partly drawn) [Compound 263]
5. CNCCN(C)Cc1c[nH]nc1C1CCC(COCCOC)(COCCOC)CC1 [Compound 60]

["> 7.00", "6.00 to 7.00", "> 7.00", "> 7.00", "6.00 to 7.00"]

Record pIC50 per entry; entries follow.
1. CNCCN(C)Cc1c[nH]nc1[C@H]1CC[C@]2(CCC(C)(C)O2)CC1 [Compound 104]
2. CNCCN(C)Cc1c[nH]nc1C1CCC2(CC1)CN(CC(C)C)C(=O)N2C (stereo not drawn) [Compound 145]
3. CCN(C(=O)CC(C)C)[C@H]1CC[C@@H](c2n[nH]cc2CN(C)CCNC)CC1 [Compound 240]
4. CNCCN(C)Cc1c[nH]nc1[C@H]1CC[C@@H](N(CCOc2ccccc2)C(=O)CCCOC)CC1 [Compound 228]

> 7.00
> 7.00
> 7.00
> 7.00

Need pIC50 of CNCCN(C)Cc1c[nH]nc1[C@H]1CC[C@@H](C(=O)N(CCCOC)CCC(C)C)CC1 [Compound 214] , thanks.
> 7.00

====

Consider the following molecules; for each one, report its IC50.
Target: full-length human PRMT8 isoform 1 (Homo sapiens, UniProt Q9NR22)
Sequence (Q9NR22 whole entry, canonical isoform): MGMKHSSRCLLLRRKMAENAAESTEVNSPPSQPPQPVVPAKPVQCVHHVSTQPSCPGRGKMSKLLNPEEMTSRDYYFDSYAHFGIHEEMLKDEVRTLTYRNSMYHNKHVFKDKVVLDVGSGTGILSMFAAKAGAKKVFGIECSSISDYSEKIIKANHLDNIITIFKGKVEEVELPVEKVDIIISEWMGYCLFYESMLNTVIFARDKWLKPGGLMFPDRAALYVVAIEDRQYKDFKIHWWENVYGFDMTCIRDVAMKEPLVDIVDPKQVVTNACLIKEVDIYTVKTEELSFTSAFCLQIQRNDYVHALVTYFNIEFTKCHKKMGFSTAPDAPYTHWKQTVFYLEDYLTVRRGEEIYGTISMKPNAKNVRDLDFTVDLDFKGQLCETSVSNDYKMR
Test: PRMT8 Biochemical Assay (3H-SAM Flashplate, peptide substrate)
Conditions: read-out: Biochemical IC50 PRMT8

Worked examples, 4 molecules total:
| MOLECULE | TARGET_DESC | IC50 |
| --- | --- | --- |
| CNCCN(C)Cc1c[nH]nc1C1CCC(C)(C)C(C(=O)NCC(C)C)C1 (centres unmarked) | full-length human PRMT8 isoform 1 (Homo sapiens, UniProt Q9NR22) | 101 to 1000 nM |
| CNCCN(C)Cc1c[nH]nc1[C@H]1CC[C@H](C(=O)N(C)CCC(C)C)CC1 | full-length human PRMT8 isoform 1 (Homo sapiens, UniProt Q9NR22) | < 100 nM |
| CCOC1CC2(CCC(c3n[nH]cc3CN(C)CCNC)CC2)CC1OCC (centres unmarked) | full-length human PRMT8 isoform 1 (Homo sapiens, UniProt Q9NR22) | < 100 nM |
| CNCCN(C)Cc1c[nH]nc1C1CCC(=O)N(CCCOC)C1 (centres unmarked) | full-length human PRMT8 isoform 1 (Homo sapiens, UniProt Q9NR22) | 101 to 1000 nM |

Working through the 4 molecules below one at a time, give IC50 for each.
1. CNCCN(C)Cc1c[nH]nc1[C@H]1CC[C@@H](N(CCC(C)C)C(=O)CCCOC)CC1
2. CNCCN(C)Cc1c[nH]nc1[C@H]1CC[C@H](N(CC(C)C)C(=O)CCCOC)CC1 [Compound 248]
3. CNCCN(C)Cc1c[nH]nc1[C@H]1CC[C@H](N(CCCOC)C(=O)CCC(C)C)CC1
4. CNCCN(C)Cc1c[nH]nc1C1CCC(C)(C)[C@H](C(=O)NCCCOC)C1 (some centres unmarked)

1: < 100 nM; 2: < 100 nM; 3: < 100 nM; 4: 101 to 1000 nM

====

Biological target: full-length human PRMT1 isoform 1 (GST-tagged) (Homo sapiens, UniProt Q99873)
Sequence (Q99873 with tags, fused parts or gaps): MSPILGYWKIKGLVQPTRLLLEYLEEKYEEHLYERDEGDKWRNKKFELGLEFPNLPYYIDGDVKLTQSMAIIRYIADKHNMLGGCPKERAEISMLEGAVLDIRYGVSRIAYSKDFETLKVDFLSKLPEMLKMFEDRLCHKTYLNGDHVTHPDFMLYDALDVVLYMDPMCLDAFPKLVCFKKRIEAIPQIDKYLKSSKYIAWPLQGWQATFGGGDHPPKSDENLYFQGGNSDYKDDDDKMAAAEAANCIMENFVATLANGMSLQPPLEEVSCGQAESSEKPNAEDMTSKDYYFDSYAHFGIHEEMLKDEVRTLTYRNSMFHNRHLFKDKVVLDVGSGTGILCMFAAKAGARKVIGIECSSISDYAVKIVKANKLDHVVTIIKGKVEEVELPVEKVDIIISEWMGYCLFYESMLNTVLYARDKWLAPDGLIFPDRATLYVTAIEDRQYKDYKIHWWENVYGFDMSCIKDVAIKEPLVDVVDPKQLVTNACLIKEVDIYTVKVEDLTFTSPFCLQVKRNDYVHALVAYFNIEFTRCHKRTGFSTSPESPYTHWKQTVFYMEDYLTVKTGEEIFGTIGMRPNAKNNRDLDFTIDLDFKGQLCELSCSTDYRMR
Assay: PRMT1 Biochemical Assay (3H-SAM Flashplate, peptide substrate)
Details: single experiment or average of multiple experiments
For each of the compounds below, state its pIC50.
Give bare numbers, as −log10 of the molar value.

| COMPOUND | ENDPOINT_NAME | RESULT_NUMBER |
| --- | --- | --- |
| CNCCN(C)Cc1c[nH]nc1[C@H]1CC[C@H](N(CCCOC)C(=O)CC(C)C)CC1 [Compound 241] | pIC50 | 7.65 |
| CCOCC1CC(c2n[nH]cc2CN(C)CCNC)CCC1(C)C (stereo not shown) [Compound 202] | pIC50 | 7.90 |
| CNCCN(C)Cc1c[nH]nc1C1CC(OC(C)C)CC(OC(C)C)C1 (stereo not shown) [Compound 118] | pIC50 | 5.67 |
| CNCCN(C)Cc1c[nH]nc1C1CCC2(CC1)OCCCO2 [Compound 160] | pIC50 | 7.66 |
| CNCCN(C)Cc1c[nH]nc1[C@H]1CC[C@@]2(CC1)CC(=O)N(CC(C)C)C2 [Compound 156] | pIC50 | 7.76 |
| CNCCN(C)Cc1c[nH]nc1[C@H]1CC[C@]2(CCC(C)(C)O2)CC1 [Compound 104] | pIC50 | 8.09 |
| Cc1ccc(/C=C/c2n[nH]cc2CN(C)CCN)cc1 [Compound 8] | pIC50 | 7.70 |
| CNCCN(C)Cc1c[nH]nc1[C@H]1CC[C@@]2(CCN(Cc3ccccc3)C2=O)CC1 [Compound 127] | pIC50 | 7.78 |
| CCOCC1CC(COCC)CC(c2n[nH]cc2CN(C)CCNC)C1 (stereo not shown) [Compound 119] | pIC50 | 6.91 |

# evaluate next
Look at this compound and give its reported pIC50. CCN(C(=O)CC(C)C)[C@H]1CC[C@@H](c2n[nH]cc2CN(C)CCNC)CC1 [Compound 240]
8.21
